Measurement Target: BRCA1 tBRCT (Homo sapiens, UniProt P38398)
Construct: BRCA1 tBRCT residues 1646-1859; made in house; host or cells: E. coli BL21(DE3)
Sequence (P38398 1646-1859): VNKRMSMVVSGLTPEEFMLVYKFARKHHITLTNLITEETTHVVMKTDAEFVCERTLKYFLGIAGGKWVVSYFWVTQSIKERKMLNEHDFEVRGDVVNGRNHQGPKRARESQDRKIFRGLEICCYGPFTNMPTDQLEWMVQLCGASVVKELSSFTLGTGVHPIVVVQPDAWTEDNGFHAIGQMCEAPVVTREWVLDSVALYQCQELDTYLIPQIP
Experimental Details: Competitive MST: inhibition of BACH1 phosphopeptide binding to BRCA1 tBRCT
Test Context: BACH1 phosphopeptide vs BRCA1 tBRCT
Parameter Measured: activity in competitive MST, in words

Compound: O=C(c1ccc2[nH]c(N3CCOCC3)nc2c1)N1CCN(Cc2ccccc2F)CC1
Val: abrogated activity
//
Compound: CC(C)c1nc2ccc(C(=O)N3CCN(Cc4ccccc4F)CC3)cc2[nH]1
Val: abrogated activity

* * *

Measurement Target: BRCA1 tBRCT (Homo sapiens)
Construct: BRCA1 tBRCT residues 1646-1859; made in house; host or cells: E. coli BL21(DE3)
Experimental Details: Competitive MST: inhibition of BACH1 phosphopeptide binding to BRCA1 tBRCT
Test Context: MST, BACH1 phosphopeptide vs BRCA1 tBRCT; mean ± SD of three experiments; NB, no binding
Parameter Measured: IC50 (nM)

// known answers, use as guide
Compound: O=C(c1ccc2[nH]c(-c3ccncc3)nc2c1)N1CCN(Cc2ccccc2F)CC1
IC50 [nM]: 315

Compound: Cc1ccc(CN2CCN(C(=O)c3ccc4nc(-c5ccccc5)[nH]c4c3)CC2)cc1
IC50 [nM]: 300

a = Cc1nc2cc(C(=O)N3CCN(Cc4ccccc4F)C[C@@H]3C(C)C)ccc2[nH]1
b = O=C(c1ccc2nc(-c3ccccc3)[nH]c2c1)N1CCN(Cc2ccc(O)cc2)CC1
c = O=C(c1ccc2nc(-c3ccccc3)[nH]c2c1)N1CCN(Cc2ccccc2F)CC1
d = Cc1nc2cc(C(=O)N3CCN(Cc4ccccc4F)C[C@H]3C(C)C)ccc2[nH]1
Returns the items ordered by IC50, from maximum to minimum. Note for the reader: the ranking is given by listing the labels in the order requested. d, b, a, c
(d: 56000 nM, b: 3600 nM, a: 1700 nM, c: 74 nM)

* * *

Measurement Target: BRCA1 tBRCT (Homo sapiens, UniProt P38398)
Construct: BRCA1 tBRCT residues 1646-1859; made in house; host or cells: E. coli BL21(DE3)
Experimental Details: AlphaScreen assay: displacement of cognate biotinylated phosphopeptide from BRCA1 tBRCT
Test Context: 10-point dose response, read-out: IC50, inhibition of binding of cognate phosphopeptide to BRCA1 tBRCT
Parameter Measured: IC50 (µM)
Please give a number only; it is taken to be in µM.

Which IC50 value belongs to Cc1nc2cc(C(=O)N3CCN(Cc4ccccc4F)CC3C(C)C)ccc2[nH]1 (stereo not shown) ? 47.3
